Test system: Aphis gossypii
ASSAY_METHOD_TEXT: Test Example 1: pesticidal effect against Aphis gossypii (Part 1), cucumber leaf disk, death rate of first-instar larvae and Colby theoretical value
Format: in vivo
SETTINGS: other insecticide 0.078 ppm alone (compound 261 0 ppm); cucumber leaf disk, first-instar larvae, 3 days
PROPERTY_MEASURED: Death rate of Aphis gossypii by single active ingredient or admixture (%)
Numbers only, in %.

# input Record request: Death rate of Aphis gossypii by single active ingredient or admixture value, item N#CCNC(=O)c1cnccc1C(F)(F)F [flonicamid]
# output 10

# input Look at this molecule and give its reported Death rate of Aphis gossypii by single active ingredient or admixture. C/C(=N\C#N)N(C)Cc1ccc(Cl)nc1 [acetamiprid]
# output 58

# input Looking for the measured Death rate of Aphis gossypii by single active ingredient or admixture of O=[N+]([O-])NC1=NCCN1Cc1ccc(Cl)nc1 [imidacloprid] , can you help?
# output 20

Here's the next entry for you.
# input Data request, read-out Death rate of Aphis gossypii by single active ingredient or admixture, for N#Cc1nn(-c2c(Cl)cc(C(F)(F)F)cc2Cl)c(N)c1[S+]([O-])C(F)(F)F (stereo not shown) [fipronil]
# output 0

* * *

System: Aphis gossypii
ASSAY_METHOD_TEXT: Test Example 1: pesticidal effect against Aphis gossypii (Part 1), cucumber leaf disk, death rate of first-instar larvae and Colby theoretical value
Assay type: in vivo
SETTINGS: Table 19; other insecticide 0.078 ppm alone (compound 261 0 ppm)
PROPERTY_MEASURED: Theoretical value calculated by Colby's formula (%)
Answers are plain numbers, in %.

# input Bench note: what Theoretical value calculated by Colby's formula did C/C(=N\C#N)N(C)Cc1ccc(Cl)nc1 show?
# output 58

# input Give its Theoretical value calculated by Colby's formula value. Item: N#Cc1nn(-c2c(Cl)cc(C(F)(F)F)cc2Cl)c(N)c1[S+]([O-])C(F)(F)F (stereo not shown)
# output 0

# input Query (compound): O=[N+]([O-])NC1=NCCN1Cc1ccc(Cl)nc1 ; field requested: Theoretical value calculated by Colby's formula
# output 20

Now look at this one.
# input Consider the compound N#CCNC(=O)c1cnccc1C(F)(F)F and give its measured Theoretical value calculated by Colby's formula.
# output 10
